# study system: cryptogein (wt cryptogein, Cry) (Phytophthora cryptogea, UniProt P15570, L61F)
# test summary: biochemical
pKd: −log10 of the molar value.

| record smiles | study system | pKd |
| --- | --- | --- |
| CC(C)[C@@H](C)/C=C/[C@@H](C)[C@H]1CC[C@H]2C3=CC=C4C[C@@H](O)CC[C@]4(C)C3=CC[C@]12C | cryptogein (wt cryptogein, Cry) (Phytophthora cryptogea, UniProt P15570, L61F) | 6.07 |

###

# study system: cryptogein (wt cryptogein, Cry) (Phytophthora cryptogea)
pKd: −log10 of the molar value.

| record smiles | study system | pKd |
| --- | --- | --- |
| CC(C)[C@@H](C)/C=C/[C@@H](C)[C@H]1CC[C@H]2C3=CC=C4C[C@@H](O)CC[C@]4(C)C3=CC[C@]12C | cryptogein (wt cryptogein, Cry) (Phytophthora cryptogea) | 6.25 |
